# Test system: HT-29
# test_method_notes: Cytotoxicity against human HT-29 cells assessed as reduction in cell viability measured after 24 hrs by MTT assay
# Type: functional, cell-based
# condition_info: HT-29, 24 h
The label Condition met is reserved for IC50 strictly under 800 nM; Condition not met covers values equal to or above it.

{"smiles_representation": "COc1c(F)cc(Nc2cc3c(cc2C(N)=O)OCCO3)cc1F", "class_name": "Condition not met"}
{"smiles_representation": "COc1cc(Nc2cc3c(cc2C(=O)O)OCCO3)cc(OC)c1OC", "class_name": "Condition not met"}
{"smiles_representation": "COc1c(Br)cc(Nc2cc3c(cc2C(=O)NN)OCCO3)cc1Br", "class_name": "Condition met"}
{"smiles_representation": "COc1cc(Nc2cc3c(cc2C(=O)NN)OCCO3)cc(OC)c1OC", "class_name": "Condition met"}
{"smiles_representation": "COC(=O)c1cc(OC)c(OC)cc1Nc1cc(Br)c(OC)c(Br)c1", "class_name": "Condition not met"}

# input For `NNC(=O)c1cc2c(cc1Nc1ccc3c(c1)OCO3)OCCO2` , is the recorded IC50 below the cut-off of 800 nM?
# output Condition not met

# input For `COc1c(F)cc(Nc2cc3c(cc2C(=O)NN)OCCO3)cc1F` , is the recorded IC50 below the cut-off of 800 nM?
# output Condition not met

# input For `COc1ccc(Nc2cc3c(cc2C(N)=O)OCCO3)cc1OC` , is the recorded IC50 below the cut-off of 800 nM?
# output Condition not met

# input For `COC(=O)c1cc2c(cc1Nc1ccc(OC)cc1)OCCO2` , is the recorded IC50 below the cut-off of 800 nM?
# output Condition not met

# input For `COc1ccc(Nc2cc3c(cc2C(=O)NN)OCCO3)cc1` , is the recorded IC50 below the cut-off of 800 nM?
# output Condition not met

# input For `COC(=O)c1cc(OC)c(OC)cc1Nc1cc(OC)c(OC)c(OC)c1` , is the recorded IC50 below the cut-off of 800 nM?
# output Condition not met
